tested on: SK-MEL-5 melanoma; experiment: NCI tumour cell line growth inhibition, 48 h
Measured log10 TGI, listed per entry for reference.
Hey, these are logged values: log10 of TGI, µM being the unit before logging.

Reference set (3 entries):
compound	log10 TGI
CCN1[C@@H](C(=O)NC23CCC(C(=O)O)(CC2)CC3)[C@H](c2cccc(Cl)c2F)[C@]2(C(=O)Nc3cc(Cl)ccc32)C12CCCCC2	0.44
O=C(c1ccc2ccccc2c1)c1nc2cc(F)ccc2[n+]([O-])c1C(F)(F)F	1.83
CCCc1nc(Cl)nc(Cl)c1Cl	0.51

IN: Tell me reported log10 TGI for CC(C)(C)NCC(O)COc1c(Br)c(Br)c(Br)c2c1OC(C)(C)C2 (stereo not given) , tested with SK-MEL-5 melanoma.
OUT: 0.46

IN: Another: O=C(Nc1cccc2[nH]c(C(F)(F)F)nc12)c1cc(Cl)ccc1Cl
OUT: 0.54
